// provenance: paper PMC10967972

test.system: human PPARδ-LBD (Homo sapiens)
Construct: PPARδ-LBD (AAs 170–441); made in house
Sequence (Q03181 170-441): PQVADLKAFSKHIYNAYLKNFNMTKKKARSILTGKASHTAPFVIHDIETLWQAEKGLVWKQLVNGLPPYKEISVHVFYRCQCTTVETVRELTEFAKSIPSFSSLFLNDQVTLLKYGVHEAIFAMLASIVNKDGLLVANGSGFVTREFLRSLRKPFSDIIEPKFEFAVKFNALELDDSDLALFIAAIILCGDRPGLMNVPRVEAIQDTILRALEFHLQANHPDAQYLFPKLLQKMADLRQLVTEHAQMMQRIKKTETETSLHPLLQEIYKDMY
assay.protocol: TR-FRET coactivator recruitment assay, PPARδ-LBD
Type: biochemical
reported.conditions: SRC1 peptide recruitment; Buffer A; read-out: PPARδ SRC1 EC50
readout.label: pEC50
Convention used: pEC50 is expressed as -log10 of the molar concentration.

>  <molecule>
CC[C@@H](Oc1cccc(CN(CCCOc2ccc(OC)cc2)c2nc3ccccc3o2)c1)C(=O)O [Pemafibrate, pemafibrate]

>  <observed.measurement>
4.83

$$$$
>  <molecule>
O=C(O)CCCc1cc2cc(Cl)ccc2n1S(=O)(=O)c1ccc2ncsc2c1

>  <observed.measurement>
5.16

$$$$

Next, consider the following molecule.
[in] I have this molecule here, CCO[C@H](COc1ccc(C(F)(F)F)cc1)CSc1ccc(OCC(=O)O)c(C)c1 , and I need its recorded pEC50.
[out] 7.13

---

test.system: human PPARδ-LBD (Homo sapiens, UniProt Q03181)
Construct: PPARδ-LBD (AAs 170–441); made in house
Sequence (Q03181 170-441): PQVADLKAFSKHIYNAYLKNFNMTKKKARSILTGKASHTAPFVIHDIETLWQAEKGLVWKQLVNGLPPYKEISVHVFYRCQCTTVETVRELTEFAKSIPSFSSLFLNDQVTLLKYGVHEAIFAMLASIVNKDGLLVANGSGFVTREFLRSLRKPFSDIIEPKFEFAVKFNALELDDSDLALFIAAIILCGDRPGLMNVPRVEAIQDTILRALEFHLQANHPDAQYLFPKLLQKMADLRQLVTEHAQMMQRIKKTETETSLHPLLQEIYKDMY
assay.protocol: TR-FRET coactivator recruitment assay, PPARδ-LBD
Type: biochemical
reported.conditions: read-out: PPARδ SRC1 EC50
readout.label: pEC50
Convention used: pEC50 is expressed as -log10 of the molar concentration.

[in] I have this compound here, CC(C)(Oc1ccc(CCNC(=O)c2ccc(Cl)cc2)cc1)C(=O)O [Bezafibrate, bezafibrate] , and I need its recorded pEC50.
[out] 4.00

---

Let's look at some compounds and their measured Emax.
test.system: human PPARδ-LBD (Homo sapiens)
Construct: PPARδ-LBD (AAs 170–441); made in house
assay.protocol: TR-FRET coactivator recruitment assay, PPARδ-LBD
Assay type: biochemical
reported.conditions: read-out: PPARδ PGC1α % of GW501516 max response
Provide the reading as a plain figure in %.

[in] I have this compound here, CC(C)(Oc1ccc(CCNC(=O)c2ccc(Cl)cc2)cc1)C(=O)O [Bezafibrate, bezafibrate] , and I need its recorded Emax.
[out] 90.3

[in] I have this compound here, CCO[C@H](COc1ccc(C(F)(F)F)cc1)CSc1ccc(OCC(=O)O)c(C)c1 [Seladelpar, seladelpar] , and I need its recorded Emax.
[out] 113

[in] I have this compound here, CC[C@@H](Oc1cccc(CN(CCCOc2ccc(OC)cc2)c2nc3ccccc3o2)c1)C(=O)O [Pemafibrate, pemafibrate] , and I need its recorded Emax.
[out] 91.1

[in] I have this compound here, CSc1ccc(C(=O)/C=C/c2cc(C)c(OC(C)(C)C(=O)O)c(C)c2)cc1 [Elafibranor, elafibranor] , and I need its recorded Emax.
[out] 68.5

[in] I have this compound here, CC(C)(Oc1ccc(C(=O)c2ccc(Cl)cc2)cc1)C(=O)O [Fenofibric acid, fenofibric acid] , and I need its recorded Emax.
[out] 0.16

---

test.system: human PPARγ-LBD (Homo sapiens, UniProt P37231)
Construct: PPARγ-LBD (AAs 203–477 in isoform 1); made in house
assay.protocol: TR-FRET coactivator recruitment assay, PPARγ-LBD
Assay type: biochemical
reported.conditions: PPARγ PGC1α EC50
readout.label: EC50 (µM)
Provide the reading as a plain figure in µM.

[in] Requested read-out EC50, target or system human PPARγ-LBD (Homo sapiens, UniProt P37231), entry CC(C)(Oc1ccc(CCNC(=O)c2ccc(Cl)cc2)cc1)C(=O)O [Bezafibrate, bezafibrate]
[out] 41.8

---

test.system: human PPARδ-LBD (Homo sapiens, UniProt Q03181)
Construct: PPARδ-LBD (AAs 170–441); made in house
Sequence (Q03181 170-441): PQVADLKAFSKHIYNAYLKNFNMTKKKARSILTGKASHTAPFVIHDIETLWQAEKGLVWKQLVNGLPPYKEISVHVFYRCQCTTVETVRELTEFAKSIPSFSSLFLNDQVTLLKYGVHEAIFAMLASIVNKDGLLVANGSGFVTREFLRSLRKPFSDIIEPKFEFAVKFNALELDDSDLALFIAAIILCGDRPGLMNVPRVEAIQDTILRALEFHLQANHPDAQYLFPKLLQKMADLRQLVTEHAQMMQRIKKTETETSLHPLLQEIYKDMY
assay.protocol: TR-FRET coactivator recruitment assay, PPARδ-LBD
Type: biochemical
reported.conditions: read-out: PPARδ PGC1α EC50
readout.label: EC50 (µM)
Provide the reading as a plain figure in µM.

[in] I have this molecule here, CC(C)(Oc1ccc(CCNC(=O)c2ccc(Cl)cc2)cc1)C(=O)O [Bezafibrate, bezafibrate] , and I need its recorded EC50.
[out] 35.8

---

Let's look at some compounds and their measured Emax.
test.system: human PPARδ-LBD (Homo sapiens, UniProt Q03181)
Construct: PPARδ-LBD (AAs 170–441); made in house
assay.protocol: TR-FRET coactivator recruitment assay, PPARδ-LBD
Type: biochemical
reported.conditions: read-out: PPARδ SRC1 % of GW501516 max response
Lab note: write values as number then unit, every time.

>  <compound>
O=C(O)CCCc1cc2cc(Cl)ccc2n1S(=O)(=O)c1ccc2ncsc2c1

>  <Emax>
57.5%

$$$$
>  <compound>
CC(C)(Oc1ccc(CCNC(=O)c2ccc(Cl)cc2)cc1)C(=O)O [Bezafibrate, bezafibrate]

>  <Emax>
50%

$$$$
>  <compound>
CC[C@@H](Oc1cccc(CN(CCCOc2ccc(OC)cc2)c2nc3ccccc3o2)c1)C(=O)O [Pemafibrate, pemafibrate]

>  <Emax>
58.6%

$$$$

Next, consider the following compound.
[in] I have this compound here, CSc1ccc(C(=O)/C=C/c2cc(C)c(OC(C)(C)C(=O)O)c(C)c2)cc1 , and I need its recorded Emax.
[out] 19.9%

---

test.system: human PPARγ-LBD (Homo sapiens)
Construct: PPARγ-LBD (AAs 203–477 in isoform 1); made in house
Sequence (P37231 203-477 isoform P37231-2): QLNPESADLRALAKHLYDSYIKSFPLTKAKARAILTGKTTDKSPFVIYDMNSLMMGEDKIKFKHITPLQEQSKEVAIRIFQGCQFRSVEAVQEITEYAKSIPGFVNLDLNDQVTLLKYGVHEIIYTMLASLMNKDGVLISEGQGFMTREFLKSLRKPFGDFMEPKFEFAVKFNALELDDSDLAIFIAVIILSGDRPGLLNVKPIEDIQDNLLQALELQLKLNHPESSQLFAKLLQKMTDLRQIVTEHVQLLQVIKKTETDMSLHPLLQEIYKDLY
assay.protocol: TR-FRET coactivator recruitment assay, PPARγ-LBD
Format: biochemical
reported.conditions: PGC1α peptide recruitment; Buffer A; read-out: PPARγ PGC1α EC50
Let's look at some molecules and their measured pEC50.
Convention used: pEC50 is expressed as -log10 of the molar concentration.

// known answers, use as guide
>  <molecule>
CCO[C@H](COc1ccc(C(F)(F)F)cc1)CSc1ccc(OCC(=O)O)c(C)c1

>  <observed.measurement>
5.30

$$$$
>  <molecule>
CCO[C@@H](Cc1ccc(OCCn2c(C)ccc2-c2ccc(SC)cc2)cc1)C(=O)O

>  <observed.measurement>
5.61

$$$$
>  <molecule>
O=C(O)CCCc1cc2cc(Cl)ccc2n1S(=O)(=O)c1ccc2ncsc2c1

>  <observed.measurement>
5.37

$$$$

Next, consider the following molecule.
[in] I have this molecule here, CC[C@@H](Oc1cccc(CN(CCCOc2ccc(OC)cc2)c2nc3ccccc3o2)c1)C(=O)O [Pemafibrate, pemafibrate] , and I need its recorded pEC50.
[out] 5.10

---

test.system: human PPARγ-LBD (Homo sapiens, UniProt P37231)
Construct: PPARγ-LBD (AAs 203–477 in isoform 1); made in house
Sequence (P37231 203-477 isoform P37231-2): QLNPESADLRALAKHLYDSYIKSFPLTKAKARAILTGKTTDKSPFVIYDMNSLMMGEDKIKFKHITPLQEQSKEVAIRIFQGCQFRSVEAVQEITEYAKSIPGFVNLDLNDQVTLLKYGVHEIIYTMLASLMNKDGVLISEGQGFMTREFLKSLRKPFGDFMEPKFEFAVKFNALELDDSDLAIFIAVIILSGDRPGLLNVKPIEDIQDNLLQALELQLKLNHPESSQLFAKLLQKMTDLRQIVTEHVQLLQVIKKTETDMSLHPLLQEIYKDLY
assay.protocol: TR-FRET coactivator recruitment assay, PPARγ-LBD
Type: biochemical
reported.conditions: CBP peptide recruitment; Buffer A; read-out: PPARγ CBP EC50
Let's look at some compounds and their measured pEC50.
Convention used: pEC50 is expressed as -log10 of the molar concentration.

// known answers, use as guide
>  <compound>
CCO[C@H](COc1ccc(C(F)(F)F)cc1)CSc1ccc(OCC(=O)O)c(C)c1 [Seladelpar, seladelpar]

>  <pEC50>
4.97

$$$$
>  <compound>
O=C(O)CCCc1cc2cc(Cl)ccc2n1S(=O)(=O)c1ccc2ncsc2c1 [Lanifibranor, lanifibranor]

>  <pEC50>
5.58

$$$$
>  <compound>
CCO[C@@H](Cc1ccc(OCCn2c(C)ccc2-c2ccc(SC)cc2)cc1)C(=O)O [Saroglitazar, saroglitazar]

>  <pEC50>
5.73

$$$$

[in] I have this compound here, CC[C@@H](Oc1cccc(CN(CCCOc2ccc(OC)cc2)c2nc3ccccc3o2)c1)C(=O)O [Pemafibrate, pemafibrate] , and I need its recorded pEC50.
[out] 5.25
